experiment: qHTS assay to identify small molecule antagonists of the androgen receptor (AR) signaling pathway using the MDA cell line - cell viability counter screen (AID 743041; also: nearly all actives have a fitted effect of over 45% in size); settings: MDA-kb2 viability, CellTiter-Fluor, 16 h, cells co-treated with R1881 androgen agonist; series mostly up to 70.3 µM
Results filed as inconclusive are left out. Active and inactive are the calls of the source. Calls follow the shape of the dose curve; as a rule, active = well fitted cell-killing curve with a large enough effect in the repeat runs; inconclusive = weak or mixed curves, or effect the other way; inactive = flat fitted curve, though single readings scatter.
Your answer must be one of the following: class 1 (active), class 0 (inactive)

These recorded examples may help you get a feel for the data.
Enquiry: Outcome? `BrCCCCBr`
Return: class 0

Enquiry: Could you please tell me the result logged for `Cn1sc(Cl)cc1=O` in this assay?
Return: class 0

Enquiry: Per the records of this test, what outcome belongs to `CN(C)c1ccc(N(C)C)cc1` ?
Return: class 0

New cases:
Enquiry: Call for entry CNC(C)Cc1ccccc1OC (centres undefined) :
Return: class 0

Enquiry: Field: outcome | Entry: `C(=NC1CCCCC1)=NC1CCCCC1`
Return: class 0

Enquiry: State the result this test recorded for `C=CC[C@]1(O)CC[C@H]2[C@@H]3CCC4=CC(=O)CCC4=C3C=C[C@@]21C` .
Return: class 0

Enquiry: Recorded test outcome, item CCC(COC(=O)c1cc(OC)c(OC)c(OC)c1)(c1ccccc1)N(C)C (centres undefined)
Return: class 0

Enquiry: Identify the outcome logged in this assay for the molecule shown: `O=C(NCc1cccnc1)Nc1ccc([N+](=O)[O-])cc1`
Return: class 0

Enquiry: For this molecule, state the assay outcome: `CCOP(=S)(OCC)Oc1nc(Cl)c(Cl)cc1Cl`
Return: class 0

Enquiry: Hey, what did the test say about CC(=O)c1cc2c(cc1C)C(C)(C)C(C)CC2(C)C (centres undefined) ?
Return: class 0

Enquiry: GET /call?item= `CCCCCCCCCC(=O)O[C@H]1CC[C@H]2[C@@H]3CCC4=CC(=O)CC[C@@H]4[C@H]3CC[C@]12C` returns the recorded outcome of this test.
Return: class 0

Enquiry: Test call, this molecule: `CCCCN=C=O`
Return: class 0

Enquiry: How was `N#CCc1ccccc1` classified in this test?
Return: class 0

Enquiry: Test call for this molecule, please: `O=[N+]([O-])c1ccccc1CCl`
Return: class 0

Enquiry: Short answer needed: outcome of this test for COC(=O)C(Br)CBr (centres undefined) ?
Return: class 0

Enquiry: // outcome(item) with item = `O=NN1CCNCC1`
Return: class 0

Enquiry: Name the outcome recorded for COc1cc(CC(C)N)cc2c1OCO2 (centres undefined) in the assay.
Return: class 0

Enquiry: Please state the recorded outcome for this molecule: `O=S(=O)(Cl)c1ccccc1`
Return: class 0

Enquiry: # lookup: test call for O=C(NC(=O)c1c(F)cccc1F)Nc1ccc(OC(F)(F)C(F)OC(F)(F)F)c(Cl)c1 (centres undefined)
Return: class 0
